System: Escherichia coli BW25113
assayExplanation: Inhibition of AcrA efflux pump in Escherichia coli BW25113 assessed as compound concentration required for potentiation of novobiocin-induced antibacterial activity by 4 fold by checkerboard assay
assayEndpoint: Activity

Examples with their reported Activity follow.
{"substanceSmiles": "O=C(CCc1ccccc1)Nc1ccc(C2=NCCN2)cc1", "assayEndpoint": "Activity", "recordedMeasurement": "> 100 µM"}
{"substanceSmiles": "O=C(Nc1ccc(NC(=O)c2ccc(C3=NCCN3)cc2)cc1)c1ccc(C2=NCCN2)cc1", "assayEndpoint": "Activity", "recordedMeasurement": "12.5 µM"}
{"substanceSmiles": "O=C(CCC(=O)Nc1ccc(C2=NCCN2)cc1)Nc1ccc(C2=NCCN2)cc1", "assayEndpoint": "Activity", "recordedMeasurement": "> 400 µM"}

Please examine the following record next.
GET /value?item= "O=C(NCc1ccccc1)c1ccc(C(=O)Nc2ccc(C3=NCCN3)cc2)cc1" &field=Activity returns > 200 µM

###

Test system: Escherichia coli
assayExplanation: Inhibition of AcrA in Escherichia coli assessed as HT dye uptake at 25 uM measured up to 600 secs by fluorescence method relative to control
Classification field: enter T for fold change (FC) values not below 10, F for values below it.

Reference set, count: 2
{"substanceSmiles": "O=C(Nc1cccc(C2=NCCN2)c1)c1ccc(C(=O)Nc2cccc(C3=NCCN3)c2)cc1", "discreteLabel": "F"}
{"substanceSmiles": "O=C(/C=C/c1ccccc1Br)Nc1ccc(C2=NCCN2)cc1", "discreteLabel": "T"}

fold change (FC) >= 10 for "O=C(Nc1ccc(C2=NCCN2)cc1)c1ccc2cc(Br)ccc2c1" ?
T

fold change (FC) >= 10 for "O=C(/C=C/c1ccccc1Cl)Nc1ccc(C2=NCCN2)cc1" ?
F

fold change (FC) >= 10 for "O=C(/C=C/c1ccc(Cl)cc1)Nc1ccc(C2=NCCN2)cc1" ?
F

fold change (FC) >= 10 for "CC(C)(C)c1ccc(/C=C/C(=O)Nc2ccc(C3=NCCN3)cc2)cc1" ?
F

fold change (FC) >= 10 for "CC(C)c1ccc(/C=C/C(=O)Nc2ccc(C3=NCCN3)cc2)cc1" ?
F

fold change (FC) >= 10 for "O=C(Nc1ccc(C2=NCCN2)cc1)c1ccc(C(=O)Nc2ccc(C3=NCCN3)cc2)c(Cl)c1" ?
F

###

System: Escherichia coli BW25113
assayExplanation: Inhibition of AcrA efflux pump in Escherichia coli BW25113 assessed as compound concentration required for potentiation of novobiocin-induced antibacterial activity by 4 fold by checkerboard assay
# Activity values compiled below
State just the number; it will be interpreted in µM.

Examples with their reported Activity follow.
{"substanceSmiles": "O=C(Nc1ccc(C2=NCCN2)cc1)c1ccc(C(=O)Nc2ccc(C3=NCCN3)cc2)c([N+](=O)[O-])c1", "Activity / µM": 25}
{"substanceSmiles": "O=C(/C=C/c1ccccc1)Nc1ccc(C2=NCCN2)cc1", "Activity / µM": 200}
{"substanceSmiles": "O=C(/C=C/c1cccc(Cl)c1)Nc1ccc(C2=NCCN2)cc1", "Activity / µM": 50}
{"substanceSmiles": "CC(C)c1ccc(/C=C/C(=O)Nc2ccc(C3=NCCN3)cc2)cc1", "Activity / µM": 50}
{"substanceSmiles": "Nc1ccc(C2=NCCN2C(=O)c2ccc(C(=O)N3CCN=C3c3ccc(N)cc3)c(Cl)c2)cc1", "Activity / µM": 50}

GET /value?item= "O=C(Nc1ccc(C2=NCCN2)cc1)c1cccc(C(=O)Nc2ccc(C3=NCCN3)cc2)c1" &field=Activity returns 200

GET /value?item= "O=C(Nc1ccc(C2=NCCN2)cc1)c1ccc(C(=O)Nc2ccc(C3=NCCN3)cc2)c(F)c1" &field=Activity returns 100

GET /value?item= "O=C(Nc1ccc(C2=NCCN2)cc1)c1ccc(Cl)cc1" &field=Activity returns 200

GET /value?item= "O=C(/C=C/c1ccc(Cl)cc1)Nc1ccc(C2=NCCN2)cc1" &field=Activity returns 25

GET /value?item= "O=C(/C=C/c1ccccc1Br)Nc1ccc(C2=NCCN2)cc1" &field=Activity returns 50

GET /value?item= "COc1ccc(/C=C/C(=O)Nc2ccc(C3=NCCN3)cc2)cc1" &field=Activity returns 100

GET /value?item= "O=C(Nc1ccc(C2=NCCN2)cc1)c1ccc(C(=O)Nc2ccc(C3=NCCN3)cc2)c(Cl)c1" &field=Activity returns 25

GET /value?item= "O=C(/C=C/c1ccccc1C(F)(F)F)Nc1ccc(C2=NCCN2)cc1" &field=Activity returns 50

GET /value?item= "O=C(Nc1ccc(C2=NCCN2)cc1)c1ccc(C(=O)Nc2ccc(C3=NCCN3)cc2)cc1" &field=Activity returns 50

GET /value?item= "O=C(/C=C/c1ccc(Br)cc1)Nc1ccc(C2=NCCN2)cc1" &field=Activity returns 100

GET /value?item= "O=C(/C=C/c1ccccc1Cl)Nc1ccc(C2=NCCN2)cc1" &field=Activity returns 25

GET /value?item= "NCc1ccc(NC(=O)c2ccc(C(=O)Nc3ccc(CN)cc3)cc2)cc1" &field=Activity returns 50

###

System: Escherichia coli
assayExplanation: Inhibition of AcrA in Escherichia coli assessed as increase in HT dye uptake at 25 uM measured up to 600 secs by fluorescence method
Activity calls are given as the source filed them. The rule behind the calls is not given here.
Field 'call' accepts active, inactive

Reference set, count: 3
{"substanceSmiles": "O=C(Nc1ccc(C2=NCCN2)cc1)c1ccc(C(=O)Nc2ccc(C3=NCCN3)cc2)c(Cl)c1", "discreteLabel": "active"}
{"substanceSmiles": "O=C(Nc1ccc(C2=NCCN2)cc1)c1ccc2cc(Br)ccc2c1", "discreteLabel": "active"}
{"substanceSmiles": "O=C(/C=C/c1ccc(Cl)cc1)Nc1ccc(C2=NCCN2)cc1", "discreteLabel": "active"}

Outcome? "O=C(Nc1cccc(C2=NCCN2)c1)c1ccc(C(=O)Nc2cccc(C3=NCCN3)c2)cc1"
active

Outcome? "O=C(Nc1ccc(C2=NCCN2)cc1)[C@H]1CC[C@H](C(=O)Nc2ccc(C3=NCCN3)cc2)CC1"
active

Outcome? "CC(C)c1ccc(/C=C/C(=O)Nc2ccc(C3=NCCN3)cc2)cc1"
active

Outcome? "CC(C)(C)c1ccc(/C=C/C(=O)Nc2ccc(C3=NCCN3)cc2)cc1"
active

Outcome? "O=C(Nc1ccc(NC(=O)c2ccc(C3=NCCN3)cc2)cc1)c1ccc(C2=NCCN2)cc1"
inactive

Outcome? "O=C(/C=C/c1ccccc1Cl)Nc1ccc(C2=NCCN2)cc1"
active

Outcome? "O=C(/C=C/c1ccccc1Br)Nc1ccc(C2=NCCN2)cc1"
active

###

Tested on: Escherichia coli
assayExplanation: Ratio of MIC for wild type Escherichia coli harboring […] pores in the outer membrane to MIC for wild type Escherichia coli harboring […] pores in the outer membrane in presence of novobiocin
Type: functional
assayEndpoint: Ratio
Keep the answer to the number alone.

Examples with their reported Ratio follow.
{"substanceSmiles": "O=C(Nc1ccc(C2=NCCN2)cc1)c1ccc(C(=O)Nc2ccc(C3=NCCN3)cc2)c(Cl)c1", "assayEndpoint": "Ratio", "recordedMeasurement": 16}
{"substanceSmiles": "CC(C)c1ccc(/C=C/C(=O)Nc2ccc(C3=NCCN3)cc2)cc1", "assayEndpoint": "Ratio", "recordedMeasurement": 8}

GET /value?item= "O=C(/C=C/c1ccccc1Cl)Nc1ccc(C2=NCCN2)cc1" &field=Ratio returns 32

###

Test system: Escherichia coli
assayExplanation: Ratio of MIC for wild type Escherichia coli harboring […] pores in the outer membrane to MIC for wild type Escherichia coli harboring […] pores in the outer membrane in presence of novobiocin
Format: functional
# Ratio values compiled below
Keep the answer to the number alone.

{"substanceSmiles": "O=C(Nc1ccc(C2=NCCN2)cc1)c1ccc2cc(Br)ccc2c1", "recordedMeasurement": 16}
{"substanceSmiles": "O=C(/C=C/c1ccc(Cl)cc1)Nc1ccc(C2=NCCN2)cc1", "recordedMeasurement": 8}
{"substanceSmiles": "O=C(/C=C/c1ccccc1Br)Nc1ccc(C2=NCCN2)cc1", "recordedMeasurement": 32}
{"substanceSmiles": "CC(C)(C)c1ccc(/C=C/C(=O)Nc2ccc(C3=NCCN3)cc2)cc1", "recordedMeasurement": 2}

GET /value?item= "O=C(Nc1cccc(C2=NCCN2)c1)c1ccc(C(=O)Nc2cccc(C3=NCCN3)c2)cc1" &field=Ratio returns 4

###

Tested on: Escherichia coli
assayExplanation: Binding affinity to Escherichia coli AG100 His-tagged AcrA at 25 uM by SPR assay
Calls of active or inactive are those of the source. The rule behind the calls is not given here.
Field 'call' accepts true (1) = active, false (0) = inactive

Reference set, count: 2
{"substanceSmiles": "O=C(Nc1cccc(C2=NCCN2)c1)c1ccc(C(=O)Nc2cccc(C3=NCCN3)c2)cc1", "discreteLabel": "true (1)"}
{"substanceSmiles": "O=C(Nc1ccc(C2=NCCN2)cc1)c1ccc(C(=O)Nc2ccc(C3=NCCN3)cc2)c(Cl)c1", "discreteLabel": "true (1)"}

Outcome? "O=C(Nc1ccc(C2=NCCN2)cc1)[C@H]1CC[C@H](C(=O)Nc2ccc(C3=NCCN3)cc2)CC1"
false (0)
